tested on: Vibrio parahaemolyticus; test: Antimicrobial activity against multidrug-resistant Vibrio parahaemolyticus 7001 after 24 hrs by microtiter plate based MIC assay; type: functional; conditions: Vibrio parahaemolyticus, 7001, 24 h
READOUT_TYPE: MIC

Examples from the recorded data:
CCCCCCCC[C@]1(OC)O[C@H](OC)c2c(O)cccc21; > 40 µg/mL
CCCCCCCC[C@]1(OC)O[C@@H](OC)c2c(O)cccc21; > 40 µg/mL
C[C@H]1COc2c(N3CCN(C)CC3)c(F)cc3c(=O)c(C(=O)O)cn1c23.C[C@H]1COc2c(N3CCN(C)CC3)c(F)cc3c(=O)c(C(=O)O)cn1c23.O; 0.156 µg/mL

Query string: Item under review: CCCCCCCC[C@@H]1OC(=O)c2c(O)cccc21 . Reported MIC?
Result string: > 40 µg/mL
